System: MOLT-4 leukemia
Assay: NCI-60 one-dose screen, 48 h
Conditions: 10 µM unless noted
About 83,000 compounds went through this panel and 20% of them were active in at least one assay; those are over-represented in the sample as a whole. The source made the active and inactive calls. How the source made its calls: active means growth percent below 10; inactive means the rest.
Pick one: active, inactive

Enquiry: Hello, I am checking results. What call was entered for "CCNc1nc(Cl)nc(NCC)n1" ?
Return: inactive

Enquiry: Field: outcome | Entry: "CCC(=O)Nc1ccc(Cl)c(Cl)c1"
Return: inactive

Enquiry: Field: outcome | Entry: "COC[C@@H]1C[C@@]2(C)[C@@H](CC[C@@H]3[C@@H]2CC[C@@]2(C)[C@H]3CC[C@]2(C)O)CC1=O"
Return: inactive

Enquiry: Answer briefly: the call reported for "CCCCCC1(CCBr)C(=O)NC(=O)NC1=O" in this assay.
Return: inactive

Enquiry: Please share the test call associated with "O=C(O)c1ccc([S-])cc1.[Au+].c1ccc(CN2[CH-]N(Cc3ccccc3)C(c3ccccc3)=C2c2ccccc2)cc1" .
Return: active
